target: Fibroblast growth factor 10 (Homo sapiens) (UniProt O15520); assay: compounds binding fibroblast growth factor 10 – biochemical, small-molecule microarray, 635 nm fluorescence, primary screen (AID 1102); details: FGF10 binding, fluorescence 635 nm, higher = more signal
Sequence (O15520 whole entry, looked up): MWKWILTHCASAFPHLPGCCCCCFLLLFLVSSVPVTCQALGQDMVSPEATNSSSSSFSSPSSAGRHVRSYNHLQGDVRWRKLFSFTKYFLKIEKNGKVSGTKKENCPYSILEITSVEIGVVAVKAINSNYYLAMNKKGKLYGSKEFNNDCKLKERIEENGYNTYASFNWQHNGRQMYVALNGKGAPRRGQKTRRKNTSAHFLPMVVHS
readout_type: composite z-score
Numbers only.

Here is how some molecules turned out for composite z-score.
| molecule | composite z-score |
| --- | --- |
| Cc1ccc(S[C@]2(C(=O)NCC(F)(F)F)CC(=O)N(Cc3ccccc3C(F)(F)F)[C@@H]2c2ccc(CO)cc2)cc1 | -0.83 |
| C[C@@H]1ON(c2ccc(I)cc2)[C@H](c2cccc(NC(=O)OCC3c4ccccc4-c4ccccc43)c2)[C@H]1C(=O)N1C(=O)OC[C@H]1Cc1ccccc1 | 0.252 |

Please give composite z-score, item by item, for the list that follows.
1. COCCOC(=O)N1C(=O)[C@@]2(c3cc(C#CCNC(N)=O)ccc31)[C@H](C(=O)Nc1nc3ccccc3s1)[C@H]1C(=O)O[C@H](c3ccccc3)[C@H](c3ccccc3)N1[C@@H]2c1ccccc1OCCO
2. C=CC1c2cc(O)c(OC)cc2CCN1C (stereo not drawn)
3. COC(=O)C(CC#Cc1ccc2c(c1)[C@]1(C(=O)N2)[C@H](C(=O)N2CCc3cc(OC)c(OC)cc3C2)[C@H]2C(=O)O[C@H](c3ccccc3)[C@H](c3ccccc3)N2[C@@H]1c1ccccc1OCCO)C(=O)OC

Completion:
[1.38, -0.169, 0.954]

Please give composite z-score, item by item, for the list that follows.
1. O=C(NC1CC1)[C@@H]1c2ccccc2C(=O)N(CC23CC4CC(CC(C4)C2)C3)[C@H]1c1ccc(CO)cc1
2. C=CCOC(=O)[C@@H]1[C@H]2C(=O)O[C@H](c3ccccc3)[C@H](c3ccccc3)N2[C@H](c2ccc(OCCOC(=O)[C@H]3C[C@H]4C(=O)N5CCC[C@H]5C(=O)N4[C@H]3c3cccc(OCCO)c3)cc2)[C@@]12C(=O)Nc1ccc(I)cc12
3. C=CC[C@@]1(C(=O)OC)N=C(c2ccc(OCCCO)cc2)O[C@@H]1c1ccccc1N=[N+]=[N-]
4. O=C1N(CCS(=O)(=O)c2ccccc2)c2ccccc2C[C@]12N=C(c1ccc(OCCCO)cc1)O[C@@H]2c1ccccc1
5. COc1ccc([Si](C)(C)[C@@H]2[C@@H](CC(=O)N3CCC[C@H]3CO)O[C@]3(C(=O)N(Cc4ccc(N5CCOC5=O)cc4)c4ccccc43)[C@H]2C)cc1
6. COC(=O)[C@@]1(Cc2ccc(F)cc2)[C@H]2c3cc(C(=O)N4CCCC4)n(Cc4ccccn4)c3C[C@H]2CN1C(=O)c1ccccc1
7. O=C1O[C@H](c2ccccc2)[C@H](c2ccccc2)N2[C@H]1[C@@H](C(=O)N1CCN(c3ncccn3)CC1)[C@]1(C(=O)Nc3ccc(C#CCCO)cc31)[C@H]2c1ccc(O)cc1
8. CC(C)C(CO)N1C(=O)[C@@H]2C3C(=O)OCCC/C=C\[C@H]3OC23C=CCN(Cc2ccccc2)C(=O)[C@@H]13 (stereo partly drawn)

Completion:
1.41
1.05
1.32
1.02
0.25
0.426
1.06
0.0565

---

Answer each item with its documented z-score.
assay: JC-1 mitochondrial potential readout, lung cancer cells – cell-based, A549, JC-1 fluorescence, basal, 24 h, 100 nL, profiling panel (AID 1138); details: higher = more signal;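 note: A549 lung adenocarcinoma cells under basal conditions with no added stimulus; test concentration not given here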
One number for each entry.

| molecule | z-score |
| --- | --- |
| CN1C(=O)C2C(C3CC3)C=C3CN(Cc4cccc(Cl)c4)[C@@H]([C@@H](O)Cc4ccccc4)C3C2C1=O (stereo not given in full) | 1.35 |

Please give z-score, item by item, for the list that follows.
1. Cc1ccccc1C(O)C1C=CC2C(=O)N(c3ccccc3)C(=O)C2N1Nc1ccccc1 (stereo not given)
2. COCC(=C=CC[C@H](O)c1ccccc1OCCO)C[C@H](O)COCc1ccccc1
3. CN(C)c1ccc(C(O)C2C=CC3C(=O)N(Cc4ccccc4)C(=O)C3N2n2cnnc2)cc1 (stereo not given)
4. O=C1C2C=CC(C(O)C3CCCCC3)N(n3cnnc3)C2C(=O)N1Cc1ccccc1 (stereo not given)

Completion:
1. -0.128
2. 1.26
3. -0.269
4. -1.96

---

Answer each item with its documented z-score.
molecular target: NADPH oxidase 2 (Homo sapiens) (UniProt P04839); assay: compounds shifting NOX2 Amplex Red fluorescence – cell-based, HEK293-NOX2, PMA-stimulated, NOX inhibitor project, primary screen (AID 1159); conditions: 45 min, higher = more signal, called active from +8 up or from −8 down; note: test concentration not given here
Sequence (P04839 whole entry, looked up): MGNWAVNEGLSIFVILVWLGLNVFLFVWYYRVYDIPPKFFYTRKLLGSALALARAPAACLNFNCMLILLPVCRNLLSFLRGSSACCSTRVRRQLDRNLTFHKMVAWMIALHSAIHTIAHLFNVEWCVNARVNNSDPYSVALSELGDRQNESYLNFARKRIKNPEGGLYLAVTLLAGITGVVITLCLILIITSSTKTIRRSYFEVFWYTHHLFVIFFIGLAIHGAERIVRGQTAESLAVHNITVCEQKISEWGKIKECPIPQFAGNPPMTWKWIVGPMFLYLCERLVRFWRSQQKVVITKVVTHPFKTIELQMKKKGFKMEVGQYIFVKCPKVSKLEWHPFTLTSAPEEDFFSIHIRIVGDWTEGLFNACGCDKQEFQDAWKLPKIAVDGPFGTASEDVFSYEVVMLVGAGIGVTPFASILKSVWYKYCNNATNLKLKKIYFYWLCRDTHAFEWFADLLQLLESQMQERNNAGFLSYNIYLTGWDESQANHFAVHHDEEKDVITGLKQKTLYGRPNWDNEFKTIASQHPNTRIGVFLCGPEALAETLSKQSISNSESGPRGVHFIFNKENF
Answers are plain numbers.

| molecule | z-score |
| --- | --- |
| CC(C)C(=C=CC[C@H](O)c1ccccc1OCCO)C[C@H](O)c1cc(Cl)cc(Cl)c1O | -1.24 |

Please give z-score, item by item, for the list that follows.
1. CN(C)C(=O)[C@@]1(Cc2ccccc2CN=[N+]=[N-])COC(c2ccc(OCCCO)cc2)=N1
2. C=CCC(OC(C)=O)[C@@H]1[C@@H](N(Cc2cccc3ccccc23)C(=O)c2ccc(-c3ccccc3)cc2)c2cc(OCCCO)ccc2N1C(=O)Cc1ccc2ccccc2c1 (some centres undefined)

Completion:
1. -4.96
2. -1.49

Please give z-score, item by item, for the list that follows.
1. [N-]=[N+]=Nc1ccccc1C[C@@]1(C(=O)NCC(O)CO)N=C(c2ccc(OCCCO)cc2)O[C@@H]1c1ccccc1 (some centres undefined)
2. CCOC(=O)C[C@H]1[C@H](OC(=O)c2ccccc2-c2ccccc2)[C@@H](NC(=O)c2ccc3ccccc3c2)c2cc(OCCCO)ccc2N1C(=O)Cc1ccc(OC)cc1
3. COCCOC(=O)N1C(=O)[C@@]2(c3cc(C#CCC(C(=O)OC)C(=O)OC)ccc31)[C@H](c1ccc(O)cc1)N1[C@H](c3ccccc3)[C@H](c3ccccc3)OC(=O)[C@H]1[C@@H]2C(=O)Nc1nc2ccccc2s1

Completion:
1. 2.51
2. 0.0357
3. 1.1

Please give z-score, item by item, for the list that follows.
1. Cc1ccc(S[C@]2(C(=O)NCCCN(C)C)CC(=O)N(Cc3ccccc3C(F)(F)F)[C@@H]2c2ccc(CO)cc2I)cc1
2. COc1cc(CO)cc(I)c1O[C@H]1C=C(C(=O)NCCO)C[C@@H]2O[C@H]12
3. CO[C@H]1O[C@H](CO)[C@@H](OC(=O)Nc2ccccc2)[C@H](OC(=O)Nc2ccccc2)[C@H]1OC(=O)Nc1ccccc1
4. COc1ccc(NN2C(C(O)c3ccc(I)cc3)C=CC3C(=O)N(C4CCCCC4)C(=O)C32)cc1 (centres undefined)
5. C=C(CCCC)C(=O)CC[C@H](OC(=O)c1ccccc1-c1ccccc1C(=O)O)c1ccc(OCCO)cc1
6. CCCCCC1=C2CNC(CC(C)C)(C(=O)OC)C=C2C(C)C1=O (centres undefined)
7. COCCOC(=O)N1C(=O)[C@@]2(c3cc(C#CCC(C(=O)OC)C(=O)OC)ccc31)[C@H](C(=O)Nc1nc3ccccc3s1)[C@H]1C(=O)O[C@H](c3ccccc3)[C@H](c3ccccc3)N1[C@@H]2c1ccc(OCCO)cc1

Completion:
1: -0.632; 2: 1.46; 3: -7.66; 4: 0.0194; 5: 0.135; 6: -0.0792; 7: 1.75

Prompt: Tell me measured z-score for "COc1ccc([Si](C)(C)[C@@H]2[C@@H](CC(=O)N3CCC[C@H]3CO)O[C@]3(C(=O)N(Cc4cccc(N5CCCCC5=O)c4)c4ccccc43)[C@H]2C)cc1" please.
Completion: 2.88

---

test: compound effects on hepatocellular carcinoma cell viability – HepG2, calcein-AM fluorescence, 48 h, basal, profiling panel (AID 1164); details: higher = more signal; note: test concentration not given here
Returns met if the recorded z-score is greater than or equal to -0.6, and not met otherwise.

Solved cases below.
| compound | qualitative_label |
| --- | --- |
| COc1ccc(C(O)C2C=CC3C(=O)N(c4ccccc4)C(=O)C3N2Nc2ccc(C#N)cc2)cc1OCc1ccccc1 (stereo not given) | met |
| CN(C)CCCC[C@@H]1NC(=O)[C@H]2C[C@@H](C(=O)O)[C@@H](c3ccc(O)cc3)N2C1=O | met |
| COc1ccc([Si](C)(C)[C@H]2[C@H](CCO)O[C@@]3(C(=O)N(Cc4ccc(NC(=O)[C@H](C)O)cc4)c4ccccc43)[C@@H]2C)cc1 | not met |
| COCCCN1C(=O)[C@@]2(c3ccc([N+](=O)[O-])cc3)CC(=O)N(CC34CC5CC(CC(C5)C3)C4)[C@@H]2c2ccc(CO)cc21 | met |
| Cc1ccccc1C(O)C1C=CC2C(=O)N(c3ccccc3)C(=O)C2N1Nc1ccccc1 (stereo not given) | met |
| COCCCNC(=O)[C@@]1(Sc2ccc(C)cc2)CC(=O)N(Cc2ccccc2C(F)(F)F)[C@@H]1c1ccc(CO)cc1I | met |
| C=CCNC(=O)[C@H]1[C@@H]2C(=O)O[C@@H](c3ccccc3)[C@@H](c3ccccc3)N2[C@@H](c2ccc(OCCO)cc2)[C@]12C(=O)Nc1ccc(C#CC3(O)CCCCCC3)cc12 | met |
| COC(=O)[C@@]1(Cc2ccc(F)cc2)[C@H]2c3cc(C(=O)N(C)C)n(CCc4ccc(O)c(O)c4)c3C[C@H]2CN1C(=O)c1ccccc1 | met |

Prompt: Decide: z-score of "O=C1[C@@H]2[C@@H](CC(COc3ccccc3)=C([C@H](O)CCc3ccccc3)[C@@H]2CO)C(=O)N1Cc1ccccc1" >= -0.6?
Completion: not met

Prompt: Decide: z-score of Cc1ccc(C(C)CC(O)C2C=CC3C(=O)N(C)C(=O)C3N2Nc2ccccc2)o1 (stereo not given) >= -0.6?
Completion: met

Prompt: Decide: z-score of "C=CCNC(=O)[C@@H]1[C@H]2C(=O)O[C@H](c3ccccc3)[C@H](c3ccccc3)N2[C@H](c2ccc(OCCO)cc2)[C@@]12C(=O)Nc1ccc(C#CC3(O)CCCCCC3)cc12" >= -0.6?
Completion: not met

Prompt: Decide: z-score of "CN(C)CCCC[C@@H]1NC(=O)[C@@H]2C[C@H](C(=O)NCCCCCN)[C@H](c3cccc(OCCO)c3)N2C1=O" >= -0.6?
Completion: met

Prompt: Decide: z-score of [N-]=[N+]=Nc1ccccc1[C@H]1OC(c2ccc(OCCCO)cc2)=N[C@@]1(Cc1ccccc1)C(=O)NCC(O)CO (stereo not given in full) >= -0.6?
Completion: not met

Prompt: Decide: z-score of "C=C(COC)/C(=C/C[C@H](OC(C)=O)c1ccccc1OCCO)c1cc(C(=O)OC)ccc1OC" >= -0.6?
Completion: not met

Prompt: Decide: z-score of "CC(C)[Si](C#CCCc1ccccc1)(O[C@H](c1ccccc1)c1cn(Cc2ccccc2)nn1)C(C)C" >= -0.6?
Completion: not met
